The measured values listed here are drawn from PubChem BioAssay (Tox21).

test: qHTS assay to identify small molecule antagonists of the thyroid receptor (TR) signaling pathway - cell viability counter screen (AID 743064); details: GH3.TRE-Luc viability, CellTiter-Fluor, 24 h; series mostly up to 70.3 µM; further: nearly all actives have a fitted effect of over 50% in size
Records with an inconclusive call do not appear. Active and inactive are the calls of the source. The call rests on the fitted dose curve; in most records, active means well fitted cell-killing curve with a large enough effect in the repeat runs; inconclusive means weak or mixed curves, or effect the other way; inactive means no such curve, though single readings can be large or run the other way.
Your reply should match one of these outcome classes. yes (1) (active), no (0) (inactive)

Use the examples below as a reference point.
>>> group("CC(C)O.CC(C)O.OCCN(CCO)CCO.OCCN(CCO)CCO.[Ti]")
"no (0)"
>>> group("C=CC(=O)OCC(C)O (stereo unspecified)")
"no (0)"
>>> group("COc1nn(C(=O)NS(=O)(=O)c2ccccc2OC(F)(F)F)c(=O)n1C")
"no (0)"

Each compound tested received a call. Report the one for CCOP(=S)(OCC)Oc1cc(Cl)c(Br)cc1Cl .
no (0)

Each compound tested received a call. Report the one for NS(=O)(=O)C(F)(F)C(F)(F)C(F)(F)C(F)(F)C(F)(F)C(F)(F)C(F)(F)C(F)(F)F .
yes (1)

Each compound tested received a call. Report the one for Clc1cc(Cl)c(Cl)c(Cl)c1 .
no (0)

Each compound tested received a call. Report the one for O=[Se]=O .
no (0)

Each compound tested received a call. Report the one for CCCCOC(=O)c1ccccc1C(=O)OCc1ccccc1 .
no (0)

Each compound tested received a call. Report the one for CCCCN(N=O)C(=N)N[N+](=O)[O-] .
yes (1)

Each compound tested received a call. Report the one for CCC(C)(NC(=O)c1cc(Cl)c(C)c(Cl)c1)C(=O)CCl (stereo unspecified) .
yes (1)

Each compound tested received a call. Report the one for C[C@@H]1CC[C@H]2[C@@H](C)C(=O)O[C@@H]3O[C@@]4(C)CC[C@@H]1[C@]32OO4 .
yes (1)

Each compound tested received a call. Report the one for BrCC(Br)C1CCC(Br)C(Br)C1 (stereo unspecified) .
yes (1)

Each compound tested received a call. Report the one for N#CCc1ccccc1 .
no (0)

Each compound tested received a call. Report the one for CN1C[C@H](CNC(=O)OCc2ccccc2)C[C@@H]2c3cccc4c3c(cn4C)C[C@H]21 .
yes (1)

Each compound tested received a call. Report the one for O=C(O)CC(Cl)C(=O)O (stereo unspecified) .
no (0)

Each compound tested received a call. Report the one for CCOC(=O)COc1cc(-c2nn(C)c(OC(F)F)c2Cl)c(F)cc1Cl .
no (0)

* * *

test: qHTS assay to identify small molecule agonists of the retinoic acid receptor (RAR) signaling pathway (AID 1159553); settings: C3RL4 RARE luciferase reporter, agonist, 6 h; series mostly up to 73.3 µM
Results filed as inconclusive are left out. Calls of active or inactive are those of the source. Calls follow the shape of the dose curve; as a rule, active = well fitted activation curve with a large enough effect in the repeat runs; inconclusive = weak or mixed curves, or effect the other way; inactive = no such curve, though single readings can be large or run the other way.
Your reply should match one of these outcome classes. active, inactive

Use the examples below as a reference point.
>>> group("O=S(=O)(Cl)c1ccccc1")
"inactive"
>>> group("CN1C[C@H](CNC(=O)OCc2ccccc2)C[C@@H]2c3cccc4c3c(cn4C)C[C@H]21")
"inactive"
>>> group("N#CCc1ccccc1")
"inactive"
>>> group("COc1c(C(C)(C)C)cc([N+](=O)[O-])c(C)c1[N+](=O)[O-]")
"inactive"

# input for lookup
Each compound tested received a call. Report the one for ClCc1ccccc1 .
inactive

* * *

experiment: qHTS assay to identify small molecule antagonists of the thyroid receptor (TR) signaling pathway - cell viability counter screen (AID 743064); conditions: GH3.TRE-Luc viability, CellTiter-Fluor, 24 h; series mostly up to 70.3 µM; further: nearly all actives have a fitted effect of over 50% in size
Results filed as inconclusive are left out. The source made the active and inactive calls. The call rests on the fitted dose curve; in most records, active means well fitted cell-killing curve with a large enough effect in the repeat runs; inconclusive means weak or mixed curves, or effect the other way; inactive means no such curve, though single readings can be large or run the other way.
Your reply should match one of these outcome classes. active, inactive

Each compound tested received a call. Report the one for O=C(O)C1(c2ccc3c(c2)OC[C@H](Cc2ccc(-c4ccccc4)cc2)[C@H]3O)CCCC1 .
active

Each compound tested received a call. Report the one for O=[N+]([O-])c1cc(C(F)(F)F)cc([N+](=O)[O-])c1Cl .
active

Each compound tested received a call. Report the one for CC1(C)[C@H](C=C(Cl)Cl)[C@@H]1C(=O)O[C@@H](C#N)c1cccc(Oc2ccccc2)c1 .
inactive

Each compound tested received a call. Report the one for O=NN1CCNCC1 .
inactive

Each compound tested received a call. Report the one for COc1c(C(C)(C)C)cc([N+](=O)[O-])c(C)c1[N+](=O)[O-] .
inactive

* * *

molecular target: Cytochrome P450 1A2 (Homo sapiens) (UniProt P05177); experiment: Cytochrome P450 Family 1 Subfamily A Member 2 (CYP1A2) small molecule antagonists: luciferase reporter qHTS assay (AID 1671199); conditions: P450-Glo CYP1A2 enzyme, luciferin luminescence, 1 h; series mostly up to 115 µM; further: nearly all actives have a fitted effect of over 50% in size
Sequence (P05177 whole entry, looked up): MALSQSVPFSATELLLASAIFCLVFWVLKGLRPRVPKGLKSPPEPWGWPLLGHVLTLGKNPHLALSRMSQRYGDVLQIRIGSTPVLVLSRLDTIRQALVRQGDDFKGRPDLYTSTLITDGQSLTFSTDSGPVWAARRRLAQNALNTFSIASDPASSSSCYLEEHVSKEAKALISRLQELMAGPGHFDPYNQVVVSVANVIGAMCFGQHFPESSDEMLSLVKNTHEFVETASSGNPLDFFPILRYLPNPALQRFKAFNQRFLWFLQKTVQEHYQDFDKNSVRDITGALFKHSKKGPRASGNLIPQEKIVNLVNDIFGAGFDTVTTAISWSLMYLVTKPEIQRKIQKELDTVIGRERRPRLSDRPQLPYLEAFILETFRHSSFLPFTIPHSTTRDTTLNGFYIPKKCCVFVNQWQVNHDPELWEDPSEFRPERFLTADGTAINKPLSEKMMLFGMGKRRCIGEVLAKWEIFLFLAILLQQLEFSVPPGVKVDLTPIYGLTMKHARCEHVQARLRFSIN
Results filed as inconclusive are left out. The source made the active and inactive calls. Calls come from the whole dose curve; as a rule, active = well fitted inhibition curve with a large enough effect in the repeat runs; inconclusive = weak or mixed curves; inactive = no such curve, though single readings can be large or run the other way.
Your reply should match one of these outcome classes. class 1 = active, class 0 = inactive

Use the examples below as a reference point.
>>> group("CC(c1ccc(O)cc1)(c1ccc(O)cc1)c1ccc(O)cc1")
"class 0"
>>> group("O=C(O)C(F)(F)C(F)(F)C(F)(F)C(F)(F)C(F)(F)C(F)(F)C(F)(F)C(F)(F)C(F)(F)F")
"class 0"

# input for lookup
Each compound tested received a call. Report the one for CCOC(=O)[C@]1(c2ccccc2)Oc2ccccc2[C@@H]1N .
class 1

* * *

biological target: Thyrotropin receptor (Homo sapiens) (UniProt P16473); assay: qHTS assay to identify small molecule agonists of the thyroid stimulating hormone receptor (TSHR) signaling pathway (AID 1224843); details: TSHR-HEK293 cells, cAMP HTRF, agonist mode, 30 min; series mostly up to 92.4 µM; further: nearly all actives have a fitted effect of over 45% in size
Sequence (P16473 whole entry, looked up): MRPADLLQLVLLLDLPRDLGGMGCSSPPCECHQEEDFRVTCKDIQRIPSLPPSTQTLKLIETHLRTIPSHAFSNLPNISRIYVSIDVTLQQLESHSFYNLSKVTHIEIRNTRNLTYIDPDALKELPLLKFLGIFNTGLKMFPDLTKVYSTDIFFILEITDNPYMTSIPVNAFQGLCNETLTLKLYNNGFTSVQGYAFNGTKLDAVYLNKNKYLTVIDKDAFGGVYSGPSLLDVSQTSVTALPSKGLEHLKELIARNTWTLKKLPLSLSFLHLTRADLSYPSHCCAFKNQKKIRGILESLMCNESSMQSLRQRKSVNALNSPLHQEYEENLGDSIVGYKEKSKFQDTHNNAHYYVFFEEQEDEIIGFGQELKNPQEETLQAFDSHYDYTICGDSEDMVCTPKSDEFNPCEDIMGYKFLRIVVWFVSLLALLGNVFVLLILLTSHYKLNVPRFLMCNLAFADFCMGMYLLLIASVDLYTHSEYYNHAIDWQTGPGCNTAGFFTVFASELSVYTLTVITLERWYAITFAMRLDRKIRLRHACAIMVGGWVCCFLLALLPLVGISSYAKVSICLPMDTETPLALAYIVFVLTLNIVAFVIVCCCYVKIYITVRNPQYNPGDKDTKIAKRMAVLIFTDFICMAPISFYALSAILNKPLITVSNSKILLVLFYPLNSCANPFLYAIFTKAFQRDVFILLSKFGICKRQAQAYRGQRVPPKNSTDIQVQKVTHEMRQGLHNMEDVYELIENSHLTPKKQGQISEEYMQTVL
Results filed as inconclusive are left out. Calls of active or inactive are those of the source. Calls come from the whole dose curve.
Your reply should match one of these outcome classes. 1 (yes) (active), 0 (no) (inactive)

>>> group("CC(C)N(C(=O)COc1nnc(C(F)(F)F)s1)c1ccc(F)cc1")
"0 (no)"
>>> group("CCc1ccc(C(=O)NN(C(=O)c2cc(C)cc(C)c2)C(C)(C)C)cc1")
"1 (yes)"

# input for lookup
Each compound tested received a call. Report the one for O=C(CBr)Nc1ccc(Cl)cc1C(=O)c1ccccc1F .
0 (no)

* * *

assay: qHTS assay for small molecule disruptors of the mitochondrial membrane potential - cell viability (AID 720634); settings: HepG2 viability, ATP luminescence (CellTiter-Glo), 1 h; series mostly up to 83.2 µM; further: nearly all actives have a fitted effect of over 20% in size
Inconclusive results are not listed. Active and inactive are the calls of the source. Calls come from the whole dose curve.
Your reply should match one of these outcome classes. class 1 for active, class 0 for inactive

Use the examples below as a reference point.
>>> group("ClCC(Br)CBr (centres undefined)")
"class 0"
>>> group("O=C(CCl)c1ccc(Cl)cc1Cl")
"class 0"
>>> group("N#Cc1ccc(Cl)cc1")
"class 0"
>>> group("CCOP(=S)(OCC)SCn1nnc2ccccc2c1=O")
"class 1"
>>> group("O=C(Nc1ccccc1)Nc1cnns1")
"class 0"
>>> group("CC(C)(Cl)[N+](=O)[O-]")
"class 0"
>>> group("C=CCC1([C@H](C)CCC)C(=O)NC(=O)NC1=O")
"class 0"
>>> group("CC[C@H]1C[C@H]2[C@@H]3CCC4=CC(=O)CC[C@@H]4[C@H]3CC[C@]2(C)[C@H]1O")
"class 0"

# input for lookup
Each compound tested received a call. Report the one for Nc1nc(=S)[nH][nH]1 .
class 0

* * *

assay: A CellTox Green Cytotoxicity Assay to monitor cytotoxicity in HepG2 cells - 8 hour (AID 1224890); details: CellTox Green fluorescence; series mostly up to 76.8 µM; further: nearly all actives have a fitted effect of over 45% in size
Records with an inconclusive call do not appear. Calls of active or inactive are those of the source. Calls come from the whole dose curve; as a rule, active = well fitted activation curve with a large enough effect in the repeat runs; inconclusive = weak or mixed curves; inactive = flat fitted curve, though single readings scatter.
Your reply should match one of these outcome classes. T for active, F for inactive

>>> group("Cc1ccc2ccccc2c1")
"F"
>>> group("O=C(O)CC(Cl)C(=O)O (stereo unspecified)")
"F"
>>> group("O=C(CCl)c1ccc(Cl)cc1Cl")
"F"
>>> group("Cc1ccc(-c2c(Cl)nc(C#N)n2S(=O)(=O)N(C)C)cc1")
"F"
>>> group("Clc1cc(C(Cl)(Cl)Cl)cnc1Cl")
"F"

Each compound tested received a call. Report the one for COP(=O)(OC)O/C(=C/Cl)c1cc(Cl)c(Cl)cc1Cl .
F

Each compound tested received a call. Report the one for O=C(O)C1(c2ccc3c(c2)OC[C@H](Cc2ccc(-c4ccccc4)cc2)[C@H]3O)CCCC1 .
F

Each compound tested received a call. Report the one for C[N+](C)(C)CCCl .
F

Each compound tested received a call. Report the one for CCOP(=O)(OCC)O/C(=C/Cl)c1ccc(Cl)cc1Cl .
F

Each compound tested received a call. Report the one for CCOP(=S)(OCC)SCn1nnc2ccccc2c1=O .
F

* * *

molecular target: Acetylcholinesterase (Homo sapiens) (UniProt P22303); test: Acetylcholinesterase (AChE) small molecule antagonists: enzyme-based qHTS assay (AID 1347397); conditions: AChE enzyme activity inhibition; series mostly up to 115 µM; further: nearly all actives have a fitted effect of over 55% in size
Sequence (P22303 whole entry, looked up): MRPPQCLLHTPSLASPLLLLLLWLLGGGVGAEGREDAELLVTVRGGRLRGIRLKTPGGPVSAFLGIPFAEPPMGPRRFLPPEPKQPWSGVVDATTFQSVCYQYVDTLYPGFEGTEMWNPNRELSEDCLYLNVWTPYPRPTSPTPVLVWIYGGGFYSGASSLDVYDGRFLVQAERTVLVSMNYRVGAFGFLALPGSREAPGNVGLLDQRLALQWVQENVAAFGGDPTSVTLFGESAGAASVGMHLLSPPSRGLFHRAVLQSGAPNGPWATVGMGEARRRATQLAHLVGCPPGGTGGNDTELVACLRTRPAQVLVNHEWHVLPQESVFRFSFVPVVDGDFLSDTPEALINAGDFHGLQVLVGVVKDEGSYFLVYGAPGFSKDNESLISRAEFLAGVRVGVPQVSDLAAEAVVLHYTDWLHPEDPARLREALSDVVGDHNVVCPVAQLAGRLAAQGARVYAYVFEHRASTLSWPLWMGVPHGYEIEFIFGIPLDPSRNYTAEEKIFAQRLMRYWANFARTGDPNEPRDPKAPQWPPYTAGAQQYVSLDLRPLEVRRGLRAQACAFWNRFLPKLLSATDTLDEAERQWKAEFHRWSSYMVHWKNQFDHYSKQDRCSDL
Calls of active or inactive are those of the source. The call rests on the fitted dose curve.
Your reply should match one of these outcome classes. Y (active), N (inactive)

>>> group("CN1C[C@H](CNC(=O)OCc2ccccc2)C[C@@H]2c3cccc4c3c(cn4C)C[C@H]21")
"Y"
>>> group("BrCC(Br)C1CCC(Br)C(Br)C1 (stereo unspecified)")
"N"
>>> group("C[C@]12CC[C@H]3[C@@H](CCC4=CC(=O)CC[C@@H]43)[C@@H]1CC[C@@H]2OC(=O)CCC1CCCCC1")
"N"
>>> group("CC(C)(C)c1cc([N+](=O)[O-])cc([N+](=O)[O-])c1O")
"N"
>>> group("c1cc2ccc3cccc4ccc(c1)c2c34")
"N"

Each molecule tested received a call. Report the one for CCCCc1c(C)nc(NCC)nc1OS(=O)(=O)N(C)C .
N

Each molecule tested received a call. Report the one for C=CC(C)=O .
N

Each molecule tested received a call. Report the one for CC(Cl)Cl .
N

Each molecule tested received a call. Report the one for CCc1ccc(C(=O)NN(C(=O)c2cc(C)cc(C)c2)C(C)(C)C)cc1 .
N

Each molecule tested received a call. Report the one for CCOS(C)(=O)=O .
N

Each molecule tested received a call. Report the one for CC(=O)NC1CCSC1=O (stereo unspecified) .
N

Each molecule tested received a call. Report the one for C=CC(=O)OCCCCO .
N

Each molecule tested received a call. Report the one for Clc1cccc2ccccc12 .
N

Each molecule tested received a call. Report the one for CCOP(=S)(OCC)SCn1nnc2ccccc2c1=O .
Y

Each molecule tested received a call. Report the one for O=C(OC1CCCCC1)c1ccccc1C(=O)OC1CCCCC1 .
N

Each molecule tested received a call. Report the one for NC(=O)CI .
N

Each molecule tested received a call. Report the one for COCCOCCO .
N

Each molecule tested received a call. Report the one for C[N+](C)(C)CCCl .
N

Each molecule tested received a call. Report the one for O=C(O)CC(Cl)C(=O)O (stereo unspecified) .
N

Each molecule tested received a call. Report the one for ClC=C(Cl)Cl .
N

Each molecule tested received a call. Report the one for CC(c1ccc(O)cc1)(c1ccc(O)cc1)c1ccc(O)cc1 .
N
